Data provenance: paper PMC10397247

Target: T1, 4H2248-AA
T1 chain: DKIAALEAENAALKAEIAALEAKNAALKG
Assay: two-hybrid library CCmax;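 further: natural log of median RNA to DNA barcode read ratio; higher means stronger binding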
Details: mean of both orientations
quantity: interaction score
Provide a numeric answer; units are not to be included.

Check out these entries, answers already filled in.
// sample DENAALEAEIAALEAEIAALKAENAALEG [4H1035-AA] , its interaction score was -1.39

interaction score measured on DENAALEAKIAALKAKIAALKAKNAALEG [4H1391-AA] = -1.32

The reported interaction score of the binder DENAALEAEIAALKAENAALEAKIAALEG [4H1109-AA] was -0.482

Input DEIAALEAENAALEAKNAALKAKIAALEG [4H189-AA] . Output interaction score: -1.26

The reported interaction score of the binder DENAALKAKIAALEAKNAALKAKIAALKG [4H1854-AA] was 1.14

***
Entry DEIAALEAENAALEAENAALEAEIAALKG [4H146-AA] , interaction score reported as -1.75
